All figures here come from patent US20250100995A1.

target: AR (Homo sapiens, UniProt P10275); construct: endogenous in cells; host or cells: VCaP cells; assay: VCAP AR Degradation Assay; type: cell-based; details: VCaP cells, 24 h, AR ELISA; lowest measured AR level normalized to DMSO control (AR degradation efficiency)
Where a name gives a salt, the structure may show the parent alone.
observation_type: Y

INSERT INTO measurements (molecule, assayed_target, endpoint_value) VALUES
  ('C[C@@H]1CN(CCO[C@H]2CC[C@H](N3C(=S)N(c4ccc(C#N)c(C(F)(F)F)c4)C(=O)C3(C)C)CC2)C[C@H](C)N1CCCOc1cc(C2CCC(=O)NC2=O)ccn1 (some centres unmarked) [Cmpd 16, hydrochloride]', 'AR (Homo sapiens, UniProt P10275)', '*** (40%<Y<80%)'),
  ('C[C@@H]1CN(CCCO[C@H]2CC[C@H](N3C(=S)N(c4ccc(C#N)c(C(F)(F)F)c4)C(=O)C3(C)C)CC2)C[C@H](C)N1CC(=O)Nc1cc(N2CCC(=O)NC2=O)ccn1 (single isomer, unassigned) [Cmpd 7, hydrochloride]', 'AR (Homo sapiens, UniProt P10275)', '*** (40%<Y<80%)'),
  ('C[C@@H]1CN(CCCC[C@H]2CC[C@H](N3C(=S)N(c4ccc(C#N)c(C(F)(F)F)c4)C(=O)C3(C)C)CC2)C[C@H](C)N1CC(=O)Nc1ccc(N2CCC(=O)NC2=O)cn1', 'AR (Homo sapiens, UniProt P10275)', '** (20%<Y≤40%)'),
  ('C[C@@H]1CN(CCO[C@H]2CC[C@H](N3C(=S)N(c4ccc(C#N)c(C(F)(F)F)c4)C(=O)C3(C)C)CC2)C[C@H](C)N1CC(=O)Nc1ccc(C2CCC(=O)NC2=O)cn1 (some centres unmarked) [Cmpd 2, hydrochloride]', 'AR (Homo sapiens, UniProt P10275)', '** (20%<Y≤40%)');

---

biological target: AR (Homo sapiens, UniProt P10275); construct: endogenous in cells; host or cells: VCaP cells; assay: VCAP AR Degradation Assay; type: cell-based; settings: VCaP cells, 24 h, AR ELISA; concentration of compound when AR level = 50% of DMSO control
Where a name gives a salt, the structure may show the parent alone.
Each entry below lists one item and its recorded DC50 value.

INSERT INTO results (compound, observation_type, endpoint_value) VALUES
  ('C[C@@H]1C[C@H](OCC[C@H]2CC[C@H](N3C(=S)N(c4ccc(C#N)c(C(F)(F)F)c4)C(=O)C3(C)C)CC2)C[C@H](C)N1CC(=O)Nc1cc(C2CCC(=O)NC2=O)ccn1 (stereo partly shown)', 'DC50', '5 to 50 nM'),
  ('C[C@@H]1CN(CCCC[C@H]2CC[C@H](N3C(=S)N(c4ccc(C#N)c(C(F)(F)F)c4)C(=O)C3(C)C)CC2)C[C@H](C)N1CC(=O)Nc1ccc(N2CCC(=O)NC2=O)cn1', 'DC50', '5 to 50 nM'),
  ('C[C@@H]1C[C@H](OCCO[C@H]2CC[C@H](N3C(=S)N(c4cnc(C#N)c(C(F)(F)F)c4)C(=O)C3(C)C)CC2)C[C@H](C)N1CC(=O)Nc1cc(C2CCC(=O)NC2=O)ccn1 (stereo partly shown)', 'DC50', '≤ 5 nM'),
  ('C[C@@H]1C[C@H](OCCO[C@H]2CC[C@H](N3C(=S)N(c4ccc(C#N)c(C(F)(F)F)c4)C(=O)C3(C)C)CC2)C[C@H](C)N1CC(=O)Nc1cc(C2CCC(=O)NC2=O)ccn1 (stereo partly shown)', 'DC50', '5 to 50 nM'),
  ('CC1(C)C(=O)N(c2ccc(C#N)c(C(F)(F)F)c2)C(=S)N1[C@H]1CC[C@H](OCCN2CCN(CC(=O)Nc3cc(C4CCC(=O)NC4=O)ccn3)[C@@H](C(F)(F)F)C2)CC1 (stereo partly shown)', 'DC50', '5 to 50 nM'),
  ('C[C@@H]1CN(CCCC[C@H]2CC[C@H](N3C(=S)N(c4ccc(C#N)c(C(F)(F)F)c4)C(=O)C3(C)C)CC2)C[C@H](C)N1CC(=O)Nc1cc(N2CCC(=O)NC2=O)ccn1', 'DC50', '5 to 50 nM');

Query: Sample C[C@@H]1C[C@H](OCC[C@H]2CC[C@H](N3C(=S)N(c4cnc(C#N)c(C(F)(F)F)c4)C(=O)C3(C)C)CC2)C[C@H](C)N1CC(=O)Nc1cc(C2CCC(=O)NC2=O)ccn1 (stereo partly shown) — what was its DC50?
Response: 5 to 50 nM

Query: And what about the compound CC1(C)C(=O)N(c2ccc(C#N)c(C(F)(F)F)c2)C(=S)N1[C@H]1CC[C@H](CCCN2CCN(CC(=O)Nc3cc(C4CCC(=O)NC4=O)ccn3)[C@@H](C(F)(F)F)C2)CC1 (stereo partly shown) ?
Response: 5 to 50 nM

Query: And what about the compound C[C@@H]1CN(CCCO[C@H]2CC[C@H](N3C(=S)N(c4ccc(C#N)c(C(F)(F)F)c4)C(=O)C3(C)C)CC2)C[C@H](C)N1CC(=O)Nc1ccc(C2CCC(=O)NC2=O)cn1 (stereo partly shown) [Cmpd 10, hydrochloride] ?
Response: > 200 nM

Query: And what about the compound C[C@@H]1CN(CCO[C@H]2CC[C@H](N3C(=S)N(c4ccc(C#N)c(C(F)(F)F)c4)C(=O)C3(C)C)CC2)C[C@H](C)N1CC(=O)Nc1ccc(C2CCC(=O)NC2=O)cn1 (stereo partly shown) [Cmpd 2, hydrochloride] ?
Response: 5 to 50 nM

Query: And what about the compound C[C@@H]1CN(CCO[C@H]2CC[C@H](N3C(=S)N(c4ccc(C#N)c(C(F)(F)F)c4)C(=O)C3(C)C)CC2)C[C@H](C)N1CCOc1ccc(N2CCC(=O)NC2=O)cn1 [Cmpd 11, hydrochloride] ?
Response: > 200 nM

Query: And what about the compound C[C@@H]1CN(CCCC[C@H]2CC[C@H](N3C(=S)N(c4ccc(C#N)c(C(F)(F)F)c4)C(=O)C3(C)C)CC2)C[C@H](C)N1CC(=O)Nc1ccc(C2CCC(=O)NC2=O)cn1 (stereo partly shown) ?
Response: ≤ 5 nM

Query: And what about the compound C[C@@H]1CN(CCO[C@H]2CC[C@H](N3C(=S)N(c4ccc(C#N)c(C(F)(F)F)c4)C(=O)C3(C)C)CC2)C[C@H](C)N1CC(=O)Nc1cc(C2CCC(=O)NC2=O)ccn1 (stereo partly shown) [Cmpd 1, hydrochloride] ?
Response: 5 to 50 nM

---

Target: AR (Homo sapiens, UniProt P10275)
Construct: endogenous in cells; host or cells: VCaP cells
Sequence (P10275 1-920): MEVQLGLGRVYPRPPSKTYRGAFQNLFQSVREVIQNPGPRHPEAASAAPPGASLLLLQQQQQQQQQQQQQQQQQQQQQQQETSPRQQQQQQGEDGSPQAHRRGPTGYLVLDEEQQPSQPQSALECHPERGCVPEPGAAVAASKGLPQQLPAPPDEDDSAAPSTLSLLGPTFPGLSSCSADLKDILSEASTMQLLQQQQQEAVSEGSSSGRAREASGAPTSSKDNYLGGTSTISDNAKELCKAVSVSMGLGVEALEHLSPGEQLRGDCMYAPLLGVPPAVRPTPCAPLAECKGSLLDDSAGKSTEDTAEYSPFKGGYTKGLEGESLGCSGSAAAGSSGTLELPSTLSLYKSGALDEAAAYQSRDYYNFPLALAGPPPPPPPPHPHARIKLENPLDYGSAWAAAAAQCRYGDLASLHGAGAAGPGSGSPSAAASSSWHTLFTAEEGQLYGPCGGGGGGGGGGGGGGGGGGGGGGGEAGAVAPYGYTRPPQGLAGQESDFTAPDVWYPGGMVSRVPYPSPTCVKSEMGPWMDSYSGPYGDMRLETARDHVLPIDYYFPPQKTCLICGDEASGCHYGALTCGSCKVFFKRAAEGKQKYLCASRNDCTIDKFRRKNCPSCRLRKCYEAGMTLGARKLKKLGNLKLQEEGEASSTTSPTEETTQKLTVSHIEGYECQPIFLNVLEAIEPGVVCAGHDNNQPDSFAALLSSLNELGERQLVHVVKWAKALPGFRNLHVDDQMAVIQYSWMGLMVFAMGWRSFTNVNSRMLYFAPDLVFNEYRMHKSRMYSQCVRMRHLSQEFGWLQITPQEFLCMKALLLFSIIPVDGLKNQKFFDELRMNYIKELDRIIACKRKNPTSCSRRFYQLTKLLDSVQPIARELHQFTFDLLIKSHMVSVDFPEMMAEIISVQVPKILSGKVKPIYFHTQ
Experiment: VCAP AR Degradation Assay
Assay type: cell-based
Conditions: VCaP cells, 24 h, AR ELISA; concentration of compound when AR level = 50% of DMSO control
Structures can show the parent of a compound that is named as a salt.
observation_type: DC50

Some solved entries appear below for comparison.
INSERT INTO measurements (compound, assayed_target, observation_type, endpoint_value) VALUES
  ('CC1(C)C(=O)N(c2cnc(C#N)c(C(F)(F)F)c2)C(=S)N1[C@H]1CC[C@H](CCCN2CCN(CC(=O)Nc3cc(C4CCC(=O)NC4=O)ccn3)[C@@H](C(F)(F)F)C2)CC1 (stereo partly shown) [Cmpd 23]', 'AR (Homo sapiens, UniProt P10275)', 'DC50', '5 to 50 nM'),
  ('C[C@@H]1CN(CCO[C@H]2CC[C@H](N3C(=S)N(c4ccc(C#N)c(C(F)(F)F)c4)C(=O)C3(C)C)CC2)C[C@H](C)N1CC(=O)Nc1ccc(C2(C)CCC(=O)NC2=O)cn1 (single isomer, unassigned) [Cmpd 6, hydrochloride]', 'AR (Homo sapiens, UniProt P10275)', 'DC50', '> 200 nM');

Query: Sample C[C@@H]1CN(CCCO[C@H]2CC[C@H](N3C(=S)N(c4ccc(C#N)c(C(F)(F)F)c4)C(=O)C3(C)C)CC2)C[C@H](C)N1CC(=O)Nc1cc(N2CCC(=O)NC2=O)ccn1 (single isomer, unassigned) [Cmpd 7, hydrochloride] — what was its DC50?
Response: > 200 nM

Query: And what about the compound C[C@@H]1CN(CCO[C@H]2CC[C@H](N3C(=S)N(c4ccc(C#N)c(C(F)(F)F)c4)C(=O)C3(C)C)CC2)C[C@H](C)N1CC(=O)Nc1ccc(N2CCC(=O)NC2=O)cn1 [Cmpd 3, hydrochloride] ?
Response: > 200 nM
